molecular target: catalytic domain of human PARP14 (Homo sapiens (Human), UniProt Q460N5); experiment: Enzymatic assay for inhibition of PARP14 (DELFIA, auto-modification with biotin-NAD); conditions: auto-modification of PARP14 by biotin-NAD, 50 nM PARP14, 3 μM biotin-NAD
Sequence (Q460N5 1611-1801): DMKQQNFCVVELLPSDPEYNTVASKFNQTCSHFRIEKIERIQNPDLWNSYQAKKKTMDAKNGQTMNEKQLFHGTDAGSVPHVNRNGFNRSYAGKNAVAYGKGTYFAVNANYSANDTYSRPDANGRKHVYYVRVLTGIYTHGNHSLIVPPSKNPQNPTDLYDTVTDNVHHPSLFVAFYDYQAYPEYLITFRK
pIC50: −log10 of the molar value. Structures can show the parent of a compound that is named as a salt.
quantity.measured: pIC50

As a guide, the following entries are already answered.
molecule: Cc1cccc2c(=O)[nH]c(CSC3CCN(CCO)CC3)nc12
result: > 6.00

molecule: O=c1[nH]c(CSC2CCNCC2)nc2nc(OCC3CC3)ccc12 [Example 229, Hydrochloride]
result: > 6.00

Field request: pIC50 | item: Cc1cccc2c(=O)[nH]c(CSC3CCN(CCN)CC3)nc12 [Example 163, dihydrochloride]
5.00 to 6.00

Consider next the molecule Cc1cccc2c(=O)[nH]c(CSC3CCN(Cc4ccc5c(c4)OCCN5C)CC3)nc12 [Example 158, trifluoroacetate] in the same way.
5.00 to 6.00

Consider next the molecule O=c1[nH]c(CSC2CCOCC2)nc2ncccc12 in the same way.
< 5.00

Consider next the molecule Cc1cccc2c(=O)[nH]c(CSC3CCN(Cc4ccc(C#N)cc4)CC3)nc12 [Example 141, trifluoroacetate] in the same way.
5.00 to 6.00

Consider next the molecule CN(c1ccc2c(=O)[nH]c(CSC3CCOCC3)nc2c1)C1CCCCC1 in the same way.
5.00 to 6.00
